Tested on: Mycobacterium tuberculosis Erdman (autoluminescent)
assay_method_text: AUC25, normalised area under dose response up to IC25 (three-drug combination) (fraction (0-1)); higher = more potent at low dose
experimental_parameters: in vitro model: valerate; time point: constant (~7 days, model-specific)
property_label: AUC25

compound	AUC25
NNC(=O)c1ccncc1 [isoniazid] + COc1c(N2C[C@@H]3CCCN[C@@H]3C2)c(F)cc2c(=O)c(C(=O)O)cn(C3CC3)c12 [moxifloxacin] + O=[N+]([O-])c1cn2c(n1)OC[C@@H](OCc1ccc(OC(F)(F)F)cc1)C2 [pretomanid]	0.107

Kindly review the next compound as well.
In plain terms, NNC(=O)c1ccncc1 [isoniazid] + COc1c(N2C[C@@H]3CCCN[C@@H]3C2)c(F)cc2c(=O)c(C(=O)O)cn(C3CC3)c12 [moxifloxacin] + CO[C@H]1/C=C/O[C@@]2(C)Oc3c(C)c(O)c4c(O)c(c(/C=N/N5CCN(C)CC5)c(O)c4c3C2=O)NC(=O)/C(C)=C\C=C\[C@H](C)[C@H](O)[C@@H](C)[C@@H](O)[C@@H](C)[C@H](OC(C)=O)[C@@H]1C [rifampicin] has a documented AUC25 of 0.0382
